Species on record: Rattus norvegicus
protocol.text: Open TG-GATES - Regimen: Single
Format: toxicity, organism-based, Sprague-Dawley
Set-up: regimen Single, gender Male, age 6 weeks
condition.info: in vivo, po, 100 mg/kg, 24 h, tissue Blood, route gavage, dose level High

- molecule: "CN(C)CCN(Cc1cccs1)c1ccccn1"
  units.text: "%"
  Eos: 0.8
- molecule: "CC1=C(/C=C/C(C)=C/C=C/C(C)=C/CO)C(C)(C)CCC1 [RETINOL]"
  units.text: "%"
  Eos: 0.8
- molecule: "CN(C)CCCN1c2ccccc2CCc2ccc(Cl)cc21 [CLOMIPRAMINE]"
  units.text: "%"
  Eos: 1
- molecule: "CN(C)CCCN1c2ccccc2CCc2ccccc21 [IMIPRAMINE]"
  units.text: "%"
  Eos: 0.6

* * *

Organism: Rattus norvegicus
protocol.text: Open TG-GATES - Regimen: Single
Type: toxicity, organism-based, Sprague-Dawley
Set-up: regimen Single, gender Male, age 6 weeks
condition.info: in vivo, po, 100 mg/kg, 9 h, tissue Blood, route gavage, dose level High

- compound: "CN(C)CCCN1c2ccccc2CCc2ccccc21 [IMIPRAMINE]"
  MCHC: "32.2%"
- compound: "CN(C)CCCN1c2ccccc2CCc2ccc(Cl)cc21 [CLOMIPRAMINE]"
  MCHC: "32.3%"
- compound: "CN(C)CCN(Cc1cccs1)c1ccccn1"
  MCHC: "33.3%"
- compound: "CC1=C(/C=C/C(C)=C/C=C/C(C)=C/CO)C(C)(C)CCC1 [RETINOL]"
  MCHC: "34.7%"

* * *

Species on record: Rattus norvegicus
protocol.text: Open TG-GATES - Regimen: Single
Format: toxicity, organism-based, Sprague-Dawley
Parameters: regimen Single, gender Male, age 6 weeks
condition.info: in vivo, po, 10 mg/kg, 24 h, tissue Blood, route gavage, dose level Low

- smiles.str: "CC1=C(/C=C/C(C)=C/C=C/C(C)=C/CO)C(C)(C)CCC1"
  Plat / x10_4/uL: 123.1
- smiles.str: "CN(C)CCN(Cc1cccs1)c1ccccn1"
  Plat / x10_4/uL: 114.6
- smiles.str: "CN(C)CCCN1c2ccccc2CCc2ccc(Cl)cc21"
  Plat / x10_4/uL: 124
- smiles.str: "CN(C)CCCN1c2ccccc2CCc2ccccc21"
  Plat / x10_4/uL: 104.4

* * *

Organism: Rattus norvegicus
protocol.text: Open TG-GATES - Regimen: Single
Type: toxicity, organism-based, Sprague-Dawley
Design: regimen Single, gender Male, age 6 weeks
condition.info: in vivo, po, 0 mg/kg, 6 h, tissue Blood, route gavage, dose level Control
Quick list: Fbg per entry.

- compound: "CN(C)CCCN1c2ccccc2CCc2ccc(Cl)cc21"
  Fbg: "254.2 mg/dL"
- compound: "Cc1ccc(C)c(OCCCC(C)(C)C(=O)O)c1"
  Fbg: "299 mg/dL"
- compound: "CC1=C(/C=C/C(C)=C/C=C/C(C)=C/CO)C(C)(C)CCC1"
  Fbg: "309.6 mg/dL"
- compound: "CC/C(=C(\\c1ccccc1)c1ccc(OCCN(C)C)cc1)c1ccccc1"
  Fbg: "261.5 mg/dL"
- compound: "CN1C(=O)CN=C(c2ccccc2)c2cc(Cl)ccc21"
  Fbg: "216 mg/dL"
- compound: "COc1ccc2[nH]c([S+]([O-])Cc3ncc(C)c(OC)c3C)nc2c1 (stereo unspecified)"
  Fbg: "220.4 mg/dL"

* * *

Quick list: MCHC per entry.
Organism: Rattus norvegicus
protocol.text: Open TG-GATES - Regimen: Daily Repeat
Type: toxicity, organism-based, Sprague-Dawley
Set-up: regimen Daily Repeat, gender Male, age 6 weeks
condition.info: in vivo, po, 100 mg/kg, 72 h, tissue Blood, route gavage, dose level Low, time 3 day

- compound: "COC1=CC(=O)C[C@@H](C)[C@]12Oc1c(Cl)c(OC)cc(OC)c1C2=O [GRISEOFULVIN]"
  MCHC (%): 33.8
- compound: "CCOc1ccc(NC(=O)CC(C)O)cc1 (stereo not given) [BUCETIN]"
  MCHC (%): 33.2
- compound: "CCOC(=O)CCC(=O)O[C@H]1[C@H](O[C@@H]2[C@@H](C)[C@H](O[C@H]3C[C@@](C)(OC)[C@@H](O)[C@H](C)O3)[C@@H](C)C(=O)O[C@H](CC)[C@@](C)(O)[C@H](O)[C@@H](C)C(=O)[C@H](C)C[C@@]2(C)O)O[C@H](C)C[C@@H]1N(C)C [ERYTHROMYCIN ETHYLSUCCINATE]"
  MCHC (%): 33.9
- compound: "COc1ccc2[nH]c([S+]([O-])Cc3ncc(C)c(OC)c3C)nc2c1 (stereo not given) [OMEPRAZOLE]"
  MCHC (%): 34.2
- compound: "NC(N)=Nc1nc(CSCCC(N)=NS(N)(=O)=O)cs1 [FAMOTIDINE]"
  MCHC (%): 35.6

* * *

Quick list: IP per entry.
Organism: Rattus norvegicus
protocol.text: Open TG-GATES - Regimen: Single
Format: toxicity, organism-based, Sprague-Dawley
Parameters: regimen Single, gender Male, age 6 weeks
condition.info: in vivo, po, 30 mg/kg, 3 h, tissue Plasma, route gavage, dose level Middle

- smiles.str: "CN(C)CCCN1c2ccccc2CCc2ccccc21"
  units.text: "mg/dL"
  IP: 9.1
- smiles.str: "CN(C)CCCN1c2ccccc2CCc2ccc(Cl)cc21"
  units.text: "mg/dL"
  IP: 9.6
- smiles.str: "CC1=C(/C=C/C(C)=C/C=C/C(C)=C/CO)C(C)(C)CCC1"
  units.text: "mg/dL"
  IP: 9
- smiles.str: "CN(C)CCN(Cc1cccs1)c1ccccn1"
  units.text: "mg/dL"
  IP: 8.4

* * *

Species on record: Rattus norvegicus
protocol.text: Open TG-GATES - Regimen: Single
Format: toxicity, organism-based, Sprague-Dawley
Set-up: regimen Single, gender Male, age 6 weeks
condition.info: in vivo, po, 1000 mg/kg, 3 h, route gavage, dose level High

- molecule: "NC(N)=Nc1nc(CSCCC(N)=NS(N)(=O)=O)cs1"
  TERMINAL_BW (g): 216.4
- molecule: "COC1=CC(=O)C[C@@H](C)[C@]12Oc1c(Cl)c(OC)cc(OC)c1C2=O"
  TERMINAL_BW (g): 213.3
- molecule: "COc1ccc2[nH]c([S+]([O-])Cc3ncc(C)c(OC)c3C)nc2c1 (centres undefined)"
  TERMINAL_BW (g): 220.8
- molecule: "CCOC(=O)CCC(=O)O[C@H]1[C@H](O[C@@H]2[C@@H](C)[C@H](O[C@H]3C[C@@](C)(OC)[C@@H](O)[C@H](C)O3)[C@@H](C)C(=O)O[C@H](CC)[C@@](C)(O)[C@H](O)[C@@H](C)C(=O)[C@H](C)C[C@@]2(C)O)O[C@H](C)C[C@@H]1N(C)C [ERYTHROMYCIN ETHYLSUCCINATE]"
  TERMINAL_BW (g): 217

* * *

Quick list: Na per entry.
Species on record: Rattus norvegicus
protocol.text: Open TG-GATES - Regimen: Single
Format: toxicity, organism-based, Sprague-Dawley
Set-up: regimen Single, gender Male, age 6 weeks
condition.info: in vivo, po, 0 mg/kg, 3 h, tissue Plasma, route gavage, dose level Control

- molecule: "CC1=C(/C=C/C(C)=C/C=C/C(C)=C/CO)C(C)(C)CCC1"
  Na [meq/L]: 142.2
- molecule: "COc1cc2c(c(OC)c1OC)-c1ccc(OC)c(=O)cc1[C@@H](NC(C)=O)CC2"
  Na [meq/L]: 140.2
- molecule: "NC(N)=Nc1nc(CSCCC(N)=NS(N)(=O)=O)cs1"
  Na [meq/L]: 140.8
- molecule: "CN(C)CCN(Cc1cccs1)c1ccccn1"
  Na [meq/L]: 142.8
- molecule: "CCOC(=O)CCC(=O)O[C@H]1[C@H](O[C@@H]2[C@@H](C)[C@H](O[C@H]3C[C@@](C)(OC)[C@@H](O)[C@H](C)O3)[C@@H](C)C(=O)O[C@H](CC)[C@@](C)(O)[C@H](O)[C@@H](C)C(=O)[C@H](C)C[C@@]2(C)O)O[C@H](C)C[C@@H]1N(C)C [ERYTHROMYCIN ETHYLSUCCINATE]"
  Na [meq/L]: 139.4
- molecule: "NNC(=O)c1ccncc1"
  Na [meq/L]: 141.8
- molecule: "CC/C(=C(\\c1ccccc1)c1ccc(OCCN(C)C)cc1)c1ccccc1"
  Na [meq/L]: 140.8

* * *

Species on record: Rattus norvegicus
protocol.text: Open TG-GATES - Regimen: Daily Repeat
Format: toxicity, organism-based, Sprague-Dawley
Design: regimen Daily Repeat, gender Male, age 6 weeks
condition.info: in vivo, po, 300 mg/kg, […], tissue Blood, route gavage, dose level Middle, time 7 day
Quick list: Lym per entry.

- compound: "NC(N)=Nc1nc(CSCCC(N)=NS(N)(=O)=O)cs1 [FAMOTIDINE]"
  units.text: "%"
  Lym: 79.2
- compound: "CCOC(=O)CCC(=O)O[C@H]1[C@H](O[C@@H]2[C@@H](C)[C@H](O[C@H]3C[C@@](C)(OC)[C@@H](O)[C@H](C)O3)[C@@H](C)C(=O)O[C@H](CC)[C@@](C)(O)[C@H](O)[C@@H](C)C(=O)[C@H](C)C[C@@]2(C)O)O[C@H](C)C[C@@H]1N(C)C [ERYTHROMYCIN ETHYLSUCCINATE]"
  units.text: "%"
  Lym: 84.8
- compound: "COc1ccc2[nH]c([S+]([O-])Cc3ncc(C)c(OC)c3C)nc2c1 (stereo not given) [OMEPRAZOLE]"
  units.text: "%"
  Lym: 78.8
- compound: "CCOc1ccc(NC(=O)CC(C)O)cc1 (stereo not given) [BUCETIN]"
  units.text: "%"
  Lym: 74
- compound: "COC1=CC(=O)C[C@@H](C)[C@]12Oc1c(Cl)c(OC)cc(OC)c1C2=O [GRISEOFULVIN]"
  units.text: "%"
  Lym: 76.6
